Target: Grb2 SH2 (UniProt P62993)
Test: SH2 binding enrichment of the phosphorylated peptide, bacterial display (enrichment ratio); higher = better substrate or ligand; peptides without Tyr show the background;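 note: peptide library displayed on the E. coli surface as eCPX fusions, selected cells deep-sequenced, score is each peptide's frequency after selection divided by its frequency in the input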
TEST_READOUT: SH2 binding enrichment

Example sequences with recorded SH2 binding enrichment:
RKETFYILSCR [GUCY2C_Y681_T682I] | 1.15
GITVTYTIPKK [UBA5_Y372_A371T] | 0.862
IRRIAYEFVEM [ADA_Y84_K80R] | 0.542
FSEVRYMKEPY [HIPK4_Y170_V171M] | 1.06
FARNSYVAGQY [G6PD_Y107] | 0.826
DAVAVYDGKIS [SH2D1A_Y7_H8D] | 0.735

(a) ALHRPYGCDVE [ABL2_Y80]
(b) GLGGVYGGASG [KRT8_Y54_G53V]
Endpoint returns whichever of a and b has the numerically higher SH2 binding enrichment. Kindly state the label of the option you pick.
a

(1) LRSRVYEVPVE [SLC26A3_Y756_N753S]
(2) EFKKHYGYSLY [ANXA3_Y295]
Endpoint returns whichever of 1 and 2 has the numerically higher SH2 binding enrichment. Kindly state the label of the option you pick.
2
(2: 1.31, 1: 0.714)

Values were extracted from the supplement of paper PMC10065799.
